testTarget: KRAS G12V-cRAF (Homo sapiens, UniProt P01116+P62937, G12V)
Sequence (P01116 1-188 isoform P01116-2 G12V): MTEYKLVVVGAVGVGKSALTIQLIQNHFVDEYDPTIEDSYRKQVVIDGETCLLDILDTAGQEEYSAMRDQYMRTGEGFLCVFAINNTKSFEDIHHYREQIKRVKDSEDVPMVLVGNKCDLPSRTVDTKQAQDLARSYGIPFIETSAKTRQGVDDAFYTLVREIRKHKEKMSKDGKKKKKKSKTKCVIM
Sequence (P62937 whole entry): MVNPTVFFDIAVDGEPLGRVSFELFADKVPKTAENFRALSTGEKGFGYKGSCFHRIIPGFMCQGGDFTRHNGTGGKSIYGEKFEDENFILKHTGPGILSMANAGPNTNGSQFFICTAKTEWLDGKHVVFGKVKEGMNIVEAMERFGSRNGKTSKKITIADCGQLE
experimentDescription: Assay for binding of KRAS to cRAF (HTRF, with Cyclophilin A), KRAS G12V
conditionParameters: KRAS G12V-cRAF binding assay(nM), GPPNP-KRAS G12V, IC50 values
Assignment: determine reported IC50 for the given molecules.
# answer = value followed by unit

Input: Entry under review: CCn1c(-c2cc(C#CCN3CCS(=O)(=O)CC3)cnc2C(C)OC)c2c3cc(ccc31)-c1cc(N)cc(c1)CC(NC(=O)C1C(C)C1C)C(=O)N1CCCC(N1)C(=O)OCC(C)(C)C2 (atropisomer, axis not shown; (Ra)) [Compound Z22] . Reported IC50?
Output: 18.6 nM

Input: Fill in: IC50 of CCn1c(-c2cc(C#CCN3CCS(=O)(=O)CC3)cnc2C(C)O)c2c3cc(ccc31)-c1csc(n1)CC(NC(=O)C1C(C)C1C)C(=O)N1CCCC(N1)C(=O)OCC(C)(C)C2 (atropisomer, axis not shown; (Ra)) [Compound Z60] is ___
Output: 15.2 nM

Input: Item COCCn1c(-c2cc(C#CCN3CCC(C#N)(CO)CC3)cnc2C(C)OC)c2c3cc(ccc31)-c1csc(n1)CC(NC(=O)C1C(C)C1C)C(=O)N1CCCC(N1)C(=O)OCC(C)(C)C2 (centres unmarked) [Compound Z29] has what recorded IC50?
Output: 18.5 nM

Input: // lookup IC50 for CCn1c(-c2cc(C#CCN3CCN(C(=O)CO)CC3)c[n+]([O-])c2C(C)OC)c2c3cc(ccc31)-c1csc(n1)CC(NC(=O)C1C(C)C1C)C(=O)N1CCCC(N1)C(=O)OCC(C)(C)C2 (atropisomer, axis not shown; (Ra)) [Compound Z48]
Output: 9.05 nM

Input: What value of IC50 has been recorded for this entry: CCn1c(-c2cc(C#CCN3CCC(C#N)CC3)cnc2C(C)OC)c2c3cc(ccc31)-c1csc(n1)CC(NC(=O)C1C3COCC31)C(=O)N1CCCC(N1)C(=O)OCC(C)(C)C2 (atropisomer, axis not shown; (Ra)) [Compound Z56]
Output: 11.9 nM

Input: // lookup IC50 for COCCn1c(-c2cc(C#CCN3CCN(C(=O)CO)CC3)c[n+]([O-])c2C(C)OC)c2c3cc(ccc31)-c1csc(n1)CC(NC(=O)C1C3COCC31)C(=O)N1CCCC(N1)C(=O)OCC(C)(C)C2 (atropisomer, axis not shown; (Ra)) [Compound Z38-1]
Output: 37.7 nM

Input: Recorded IC50 for COCCn1c(-c2cc(C#CCN3CCC(C#N)(CO)CC3)c[n+]([O-])c2C(C)OC)c2c3cc(ccc31)-c1csc(n1)CC(NC(=O)C1C(C)C1C)C(=O)N1CCCC(N1)C(=O)OCC(C)(C)C2 (atropisomer, axis not shown; (Ra)) [Compound Z42-1] , please?
Output: 9.9 nM

Input: Given the entry CCn1c(-c2cc(C#CCN3CCC(C#N)CC3)cnc2C(C)OC)c2c3cc(ccc31)-c1coc(n1)CC(NC(=O)C1C3COCC31)C(=O)N1CCCC(N1)C(=O)OCC(C)(C)C2 (atropisomer, axis not shown; (Ra)) [Compound Z168] , report its measured IC50.
Output: 7.75 nM

Input: Endpoint output: IC50 of CCn1c(-c2cc(C#CCN3CCN(C(=O)CO)CC3)cnc2C(C)OC)c2c3cc(ccc31)-c1csc(n1)CC(NC(=O)C1C(C)C1C)C(=O)N1CCCC(N1)C(=O)OCC(C)(C)C2 (atropisomer, axis not shown; (Ra)) [Compound Z6] . Value?
Output: 10.7 nM

Input: Fill in the blank: the reported IC50 of CCn1c(-c2cc(C#CCN3CCC(C#N)CC3)cnc2C(C)OC)c2c3cc(ccc31)-c1coc(n1)CC(NC(=O)C1C(C)C1C)C(=O)N1CCCC(N1)C(=O)OCC(C)(C)C2 (atropisomer, axis not shown; (Ra)) [Compound Z155] is ____.
Output: 8.29 nM

Input: Which IC50 is listed for CCn1c(-c2cc(C#CCN3CCN(C(=O)CO)CC3)cnc2C(C)OC)c2c3cc(ccc31)-c1coc(n1)CC(NC(=O)C1C3COCC31)C(=O)N1CCCC(N1)C(=O)OCC(C)(C)C2 (atropisomer, axis not shown; (Ra)) [Compound Z44] ?
Output: 11.8 nM

Input: Bench note: what IC50 did CCn1c(-c2cc(C#CC(CO)N3CCS(=O)(=O)CC3)cnc2C(C)OC)c2c3cc(ccc31)-c1csc(n1)CC(NC(=O)C1C3COCC31)C(=O)N1CCCC(N1)C(=O)OCC(C)(C)C2 (atropisomer, axis not shown; (Ra)) [Compound Z40] show?
Output: 7.8 nM

Input: GET /values?readout=IC50&item= CCn1c(-c2cc(C#CCN3CCN(C(=O)CN)CC3)cnc2C(C)OC)c2c3cc(ccc31)-c1csc(n1)CC(NC(=O)C1C3COCC31)C(=O)N1CCCC(N1)C(=O)OCC(C)(C)C2 (atropisomer, axis not shown; (Ra)) [Compound Z47]
Output: 19.3 nM

Input: // query IC50 value for entry CCn1c(-c2cc(C#CCN3CCS(=O)(=O)CC3)cnc2C(C)NC)c2c3cc(ccc31)-c1csc(n1)CC(NC(=O)C1C(C)C1C)C(=O)N1CCCC(N1)C(=O)OCC(C)(C)C2 (atropisomer, axis not shown; (Ra)) [Compound Z67]
Output: 8.7 nM

Input: Which IC50 is reported for this molecule? CCn1c(-c2cc(C#CCN3CCS(=O)(=O)CC3)cnc2C(C)OC)c2c3cc(ccc31)-c1csc(n1)CC(NC(=O)C1C(C)C1C(=O)NCCO)C(=O)N1CCCC(N1)C(=O)OCC(C)(C)C2 (atropisomer, axis not shown; (Ra)) [Compound Z13-2]
Output: 5.1 nM

Input: # lookup: IC50 of CCn1c(-c2cc(C#CCN3CCC(O)CC3)cnc2C(C)OC)c2c3cc(ccc31)-c1csc(n1)CC(NC(=O)C1C(C)C1C)C(=O)N1CCCC(N1)C(=O)OCC(C)(C)C2 (atropisomer, axis not shown; (Ra)) [Compound Z11]
Output: 12.3 nM

Input: Can you share its IC50? I mean this molecule: CCn1c(-c2cc(C#CCN3CCS(=O)(=O)CC3)cnc2C(C)OC)c2c3cc(ccc31)-c1csc(n1)CC(NC(=O)C1C(C)C1C(=O)NCCO)C(=O)N1CCCC(N1)C(=O)OCC(C)(C)C2 (atropisomer, axis not shown; (Ra)) [Compound Z13-1]
Output: 5.2 nM
